Each recorded value in this set is attributed to EPA's ToxValDB 9.5 (doi:10.2903/j.efsa.2016.4569).

System: Rattus norvegicus
Settings: short-term; duration: 28 days; M
Give measured log10 NOAEL for each item. Keep answers brief.
For clarity, the numbers are log10 values of NOAEL expressed in mg/kg-day.

// known answers, use as guide
For reference, reported log10 NOAEL for Cc1nn(-c2cc(C=CC(=O)O)c(Cl)cc2F)c(=O)n1C(F)F stands at 0.00

For reference, reported log10 NOAEL for O=C(O)CCc1cc(-n2nc(CO)n(C(F)F)c2=O)c(F)cc1Cl [3-Hydroxymethyl-F8426-propionic acid] stands at 0.15

For reference, reported log10 NOAEL for Cc1nn(-c2cc(C(=O)O)c(Cl)cc2F)c(=O)n1C(F)F stands at 0.73

For reference, reported log10 NOAEL for O=C(O)c1cc(-n2nc(C(=O)O)n(C(F)F)c2=O)c(F)cc1Cl [F8426-dicarboxylic acid] stands at 1.08

For reference, reported log10 NOAEL for COc1cc(-n2nc(C)n(C(F)F)c2=O)c(F)cc1Cl stands at 0.93

For reference, reported log10 NOAEL for O=C(O)c1cc(-n2nc(CO)n(C(F)F)c2=O)c(F)cc1Cl stands at 1.00

Record log10 NOAEL for all entries; do not skip any.
1. O=C(O)c1cc(-n2ncn(C(F)F)c2=O)c(F)cc1Cl [3-Desmethyl-F8426-benzoic acid]
2. Cc1nn(-c2cc(CC(C(=O)O)S(=O)(=O)O)c(Cl)cc2F)c(=O)n1C(F)F (stereo not drawn) [F8426-alpha-Sulfodeschloropropionic acid]

1: 0.73; 2: -0.44
